Cited source: the RNAGym collection of RNA variant scans (doi:10.7554/elife.80360)

B1: HDV Ribozyme (parent)
chain: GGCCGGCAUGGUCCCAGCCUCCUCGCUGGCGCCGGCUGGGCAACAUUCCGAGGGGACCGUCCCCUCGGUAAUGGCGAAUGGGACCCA

variants of: B1; assay: self-cleavage, relative activity (ratio to wild type); higher = more cleavage; co-transcriptional
The entries below come with measured self-cleavage values attached.

Some variants with recorded self-cleavage:
G67U G81U = 0.155
C18A C24A = 0.163
U46G C75G = 0.0639
C75G A77G = 0.0755
C32A U60C = 0.213
C22A C30U = 0.121
G31U A42U = 0.104
U12C G25A = 0.17
A16C G38C = 0
G5A U79C = 0.0252

Query: Could you tell me which self-cleavage is on file for G28A U37G ?
Reply: 0

Query: Lookup C3G U60A
Reply: 0.772

Query: Lookup G67A G73C
Reply: 0.13

Query: Lookup C3G G68C
Reply: 0.531

Query: Lookup G5U C21G
Reply: 0.0791

Query: Lookup C13U G54C
Reply: 0.623

Query: Lookup C22U G76C
Reply: 0.763
